B1: PDS5B (parent)
chain: IYKKYALQSAAGKDAAKQIAWIKD

Variants of: B1
assay-text: protein stability index of a GFP-peptide fusion (GPS, HEK-293T) (PSI 1-6); higher = more stable;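 note: lentivirally expressed fusions sorted by FACS into six bins by GFP to DsRed ratio, PSI derived from sequencing read proportions per bin multiplied by bin number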
measurement-parameters: c terminus: a fixed tail appended
Okay, here is how we bin by protein stability index: class 0 (below 2), class 1 (2 to below 3), class 2 (3 or more)

mutation_name=K23Y class_assignment="class 1"
mutation_name=A20Y class_assignment="class 1"
mutation_name=Y2P class_assignment="class 2"
mutation_name=A11Y class_assignment="class 0"
mutation_name=A11T class_assignment="class 1"
mutation_name=G12Q class_assignment="class 0"
mutation_name=K23E class_assignment="class 1"
mutation_name=I19Q class_assignment="class 1"
mutation_name=A10D class_assignment="class 1"
mutation_name=L7F class_assignment="class 0"
mutation_name=D14W class_assignment="class 1"
mutation_name=A15S class_assignment="class 1"
mutation_name=K17V class_assignment="class 1"
mutation_name=Y5T class_assignment="class 2"
mutation_name=Q18K class_assignment="class 1"
mutation_name=S9T class_assignment="class 1"
mutation_name=K13L class_assignment="class 1"
mutation_name=K4E class_assignment="class 1"
mutation_name=I1L class_assignment="class 1"
mutation_name=K17N class_assignment="class 1"
mutation_name=K23L class_assignment="class 2"
mutation_name=I22R class_assignment="class 2"
mutation_name=A6M class_assignment="class 0"
mutation_name=Y5R class_assignment="class 1"
mutation_name=A20H class_assignment="class 1"
mutation_name=K17L class_assignment="class 1"
mutation_name=K23H class_assignment="class 1"
mutation_name=A11P class_assignment="class 1"
mutation_name=Q8A class_assignment="class 1"
mutation_name=L7G class_assignment="class 1"
mutation_name=D14L class_assignment="class 0"
mutation_name=K17F class_assignment="class 0"
mutation_name=Y5S class_assignment="class 1"
mutation_name=A20P class_assignment="class 1"
mutation_name=I1D class_assignment="class 2"
mutation_name=I1H class_assignment="class 2"
mutation_name=K13P class_assignment="class 1"
mutation_name=D24M class_assignment="class 0"
mutation_name=K13R class_assignment="class 1"
mutation_name=I1Q class_assignment="class 2"
mutation_name=A20K class_assignment="class 1"
mutation_name=Y2M class_assignment="class 2"
mutation_name=D24F class_assignment="class 1"
mutation_name=W21N class_assignment="class 2"
mutation_name=W21F class_assignment="class 1"
mutation_name=K13S class_assignment="class 1"
mutation_name=K17G class_assignment="class 1"
mutation_name=I1K class_assignment="class 1"
mutation_name=W21T class_assignment="class 2"
mutation_name=A16E class_assignment="class 1"
mutation_name=I1A class_assignment="class 1"
mutation_name=I22A class_assignment="class 2"
mutation_name=G12E class_assignment="class 1"
mutation_name=A20S class_assignment="class 1"
mutation_name=Y5C class_assignment="class 0"
mutation_name=I1Y class_assignment="class 1"
mutation_name=K4P class_assignment="class 1"
mutation_name=I19N class_assignment="class 2"
mutation_name=K13E class_assignment="class 1"
mutation_name=I22Q class_assignment="class 2"
mutation_name=K3E class_assignment="class 1"
mutation_name=I1V class_assignment="class 1"
mutation_name=A6K class_assignment="class 1"
mutation_name=A15Y class_assignment="class 0"
mutation_name=Q8T class_assignment="class 0"
mutation_name=A11I class_assignment="class 0"
mutation_name=A10N class_assignment="class 1"
mutation_name=A16W class_assignment="class 1"
mutation_name=I22W class_assignment="class 1"
mutation_name=A15R class_assignment="class 1"
mutation_name=K17I class_assignment="class 0"
mutation_name=A15H class_assignment="class 1"
mutation_name=S9L class_assignment="class 0"
mutation_name=A15M class_assignment="class 0"
mutation_name=K17R class_assignment="class 1"
mutation_name=I1P class_assignment="class 1"
mutation_name=S9I class_assignment="class 0"
mutation_name=K23P class_assignment="class 1"
mutation_name=K4R class_assignment="class 1"
mutation_name=A16S class_assignment="class 1"
